- Tested on: TEL-VEGFR2-BaF3
- test protocol: Proliferation of TEL-VEGFR2-BaF3 cells, CCK8 cell viability assay
- Assay type: cell-based
- measurement context: Mus musculus, 72 hours, stably expressing VEGFR2 kinase
One threshold, 2 µM, splits the recorded GI50 values: lower ones are Y, equal or higher ones are N.

Ask | Input Cc1ccc(NC(=O)Nc2ccc(Oc3cc(N4CCN[C@H](C)C4)ncn3)cc2)cc1C(F)(F)F [Example 106] ; condition: GI50 strictly below 2 µM. Does it hold?
Reply | Y

Ask | Quick check: GI50 of CC(=O)Nc1cc(Oc2ccc(NC(=O)Cc3ccccc3Br)cc2)ncn1 [Example 17] under 2 µM?
Reply | Y

Ask | Threshold test, GI50 < 2 µM: CC(=O)Nc1cc(Oc2ccc(CC(=O)Nc3cccc(C(F)(F)F)c3)cc2)ncn1 [Example 33]
Reply | Y

Ask | Please let me know if CC(=O)Nc1cc(Oc2ccc(NC(=O)Cc3cccc([N+](=O)[O-])c3C)cc2)ncn1 [Example 9] shows GI50 below 2 µM.
Reply | Y

Ask | Bench note: check whether CCC(=O)NCCNc1cc(Nc2ccc(CC(=O)Nc3ccc(C)c(C(F)(F)F)c3)cc2)ncn1 [Example 139] shows GI50 below 2 µM
Reply | N

Ask | # check: GI50 < 2 µM for CC(C)C(=O)Nc1cc(Oc2ccc(NC(=O)Cc3cccc(C(F)(F)F)c3)cc2)ncn1 [Example 50]
Reply | N

Ask | Criterion: GI50 strictly below 2 µM. Is it met by Cc1ccc(NC(=O)Cc2ccc(Nc3cc(NCCN)ncn3)cc2)cc1C(F)(F)F [Example 138] ?
Reply | Y

Ask | Hi there! Is GI50 for C=CC(=O)NCCNc1cc(Nc2ccc(CC(=O)Nc3ccc(C)c(C(F)(F)F)c3)cc2)ncn1 [Example 140] below 2 µM, do you know?
Reply | N

Ask | Record COc1ccc(CC(=O)Nc2ccc(Oc3cc(NC(C)=O)ncn3)cc2)cc1OC [Example 61] : is its GI50 strictly below 2 µM?
Reply | Y

Ask | Consider CC(=O)Nc1cc(Oc2ccc(NC(=O)Cc3cc(Cl)ccc3C(F)(F)F)cc2)ncn1 [Example 2] . Does its GI50 lie strictly below 2 µM?
Reply | N

Ask | Consider the compound Cc1ccc(NC(=O)Nc2ccc(Oc3cc(N4CCNCC4C)ncn3)cc2)cc1C(F)(F)F (stereo not shown) [Example 104] . Is its GI50 strictly less than 2 µM?
Reply | N

Ask | Is GI50 of CC(=O)Nc1cc(Oc2ccc(NC(=O)C(O)c3ccccc3F)cc2)ncn1 (stereo not shown) [Example 63] strictly below 2 µM?
Reply | N

Ask | In the record for Cc1ccc(NC(=O)NC2CCC(Oc3cc(NCCN)ncn3)CC2)cc1C(F)(F)F (stereo not shown) [Example 128] , is GI50 less than 2 µM?
Reply | Y

Ask | For this compound, is GI50 lower than 2 µM? CC(=O)Nc1cc(Oc2ccc(NC(=O)Cc3ccc(C)c(C)c3)cc2)ncn1 [Example 60]
Reply | Y

Ask | Quick check: does Cc1ccc(NC(=O)N[C@H]2CC[C@H](Oc3cc(NCCO)ncn3)CC2)cc1C(F)(F)F [Example 42] have GI50 under 2 µM?
Reply | N

Ask | GI50 strictly < 2 µM for this compound? CCN1CCN(Cc2ccc(NC(=O)Nc3ccc(Oc4cc(NCCN)ncn4)cc3)cc2C(F)(F)F)CC1 [Example 109]
Reply | Y

----------
- System: FLT3-ITD-BaF3
- test protocol: Proliferation of FLT3-ITD-BaF3 cells, CCK8 cell viability assay
- Format: cell-based
- measurement context: Mus musculus, 72 hours, stably expressing FLT3/ITD
For each entry below, report its GI50 value.
Respond with the bare value in nM.

Ask | Given the entry CC(=O)Nc1cc(Oc2ccc(NC(=O)Cc3ccc(C(F)(F)F)cc3C(F)(F)F)cc2)ncn1 [Example 3] , what GI50 was observed with FLT3-ITD-BaF3?
Reply | 109

Ask | Which GI50 is reported with FLT3-ITD-BaF3 for this entry: CC(=O)Nc1cc(Oc2ccc(NC(=O)Cc3ccc(F)cc3F)cc2)ncn1 [Example 5] ?
Reply | 30

Ask | GI50 of Cc1ccc(NC(=O)Nc2ccc(Oc3cc(N[C@@H](C)C(=O)O)ncn3)cc2)cc1C(F)(F)F [Example 126] on FLT3-ITD-BaF3?
Reply | 153

Ask | Value wanted: GI50 (FLT3-ITD-BaF3) of entry CC(=O)Nc1cc(Oc2ccc(CC(=O)Nc3cccc(Cl)c3C(F)(F)F)cc2)ncn1 [Example 35]
Reply | 67

Ask | # returns recorded GI50 (system: FLT3-ITD-BaF3) for Cc1ccc(NC(=O)Nc2ccc(Oc3cc(N4CCNC[C@H]4C)ncn3)cc2)cc1C(F)(F)F [Example 105]
Reply | 86

Ask | Missing value: GI50, FLT3-ITD-BaF3, entry COCCNc1cc(Oc2ccc(NC(=O)Nc3ccc(CN4CCN(C)CC4)cc3)cc2)ncn1 [Example 172] . Fill in?
Reply | 340

Ask | Query the reported GI50 for FLT3-ITD-BaF3; item: Cc1ccc(NC(=O)Nc2ccc(Oc3cc(N4CCNC[C@@H]4C)ncn3)cc2)cc1C(F)(F)F [Example 107]
Reply | 150

Ask | Recall the recorded GI50 for CNC(=O)c1cc(Oc2ccc(NC(=O)Nc3ccc(Cl)c(C(F)(F)F)c3)cc2)ccn1 [Sorafenib, reference compound] with FLT3-ITD-BaF3 and state it.
Reply | 0.3

----------
- Test system: BaF3
- test protocol: Proliferation of BaF3 cells, CCK8 cell viability assay
- Assay type: cell-based
- measurement context: Mus musculus, 72 hours
Provide the reported GI50 of each item.

Ask | Give the measured GI50 of "COCCNc1cc(Oc2ccc(NC(=O)Nc3ccc(C(F)(F)F)cc3)cc2)ncn1" .
Reply | > 10 µM

Ask | GI50 lookup needed for "Cc1ccc(NC(=O)Nc2ccc(Oc3cc(N[C@H](C)CNC(=O)OC(C)(C)C)ncn3)cc2)cc1C(F)(F)F" , thanks.
Reply | 4.12 µM

Ask | Any idea what GI50 was measured for "CCN1CCN(Cc2ccc(NC(=O)Nc3ccc(Oc4cc(NCCN)ncn4)cc3)cc2C(F)(F)F)CC1" ?
Reply | 3.54 µM

Ask | Give its GI50 value. Item: "COc1ccc(CC(=O)Nc2ccc(Oc3cc(NC(C)=O)ncn3)cc2)cc1OC"
Reply | 5.71 µM

Ask | # get_value(readout='GI50', item= "Cc1ccc(NC(=O)Nc2ccc(Oc3cc(NC4CCNCC4)ncn3)cc2)cc1C(F)(F)F" )
Reply | > 10 µM

Ask | // query GI50 value for entry "Cc1ccc(NC(=O)Nc2ccc(Oc3cc(NCC(N)=O)ncn3)cc2)cc1C(F)(F)F"
Reply | > 10 µM

Ask | Which GI50 is reported for this compound? "Cc1ccc(NC(=O)Nc2ccc(Oc3cc(N[C@H](C)CN)ncn3)cc2)cc1C(F)(F)F"
Reply | > 10 µM

Ask | Give its GI50 value. Item: "Cc1ccc(NC(=O)Nc2ccc(Oc3cc(N4CCN(C(=O)CC(C)(C)C)C[C@H]4C)ncn3)cc2)cc1C(F)(F)F"
Reply | 9.87 µM

Ask | Quick one: GI50 for Cc1ccc(NC(=O)Nc2ccc(Oc3cc(N4CCNCC4C)ncn3)cc2)cc1C(F)(F)F (stereo not shown) ?
Reply | 8.48 µM

Ask | Looking for the measured GI50 of "CC(=O)Nc1cc(Oc2ccc(NC(=O)Cc3cccc([N+](=O)[O-])c3C)cc2)ncn1" , can you help?
Reply | > 10 µM

Ask | What GI50 value was documented for this compound, "COc1cc(CC(=O)Nc2ccc(Oc3cc(NC(C)=O)ncn3)cc2)ccc1O" ?
Reply | > 10 µM

Ask | What GI50 value was documented for this compound, "CC(=O)Nc1cc(Oc2ccc(NC(=O)Cc3cccc(Cl)c3)cc2)ncn1" ?
Reply | > 10 µM

Ask | Please report the recorded GI50 for "CC(=O)Nc1cc(Oc2ccc(CC(=O)Nc3cccc(C(F)(F)F)c3)cc2)ncn1" .
Reply | > 10 µM

Ask | What does the record list as GI50 for "CC(=O)Nc1cc(Oc2ccc(NC(=O)Cc3cccc(F)c3F)cc2)ncn1" ?
Reply | > 10 µM

Ask | Any idea what GI50 was measured for "CC(=O)Nc1cc(Oc2ccc(NC(=O)Cc3cc(Cl)ccc3C(F)(F)F)cc2)ncn1" ?
Reply | > 10 µM

Ask | Entry "CC(=O)Nc1cc(Oc2ccc(NC(=O)Cc3ccc(F)cc3F)cc2)ncn1" has what GI50?
Reply | > 10 µM

----------
- Tested on: TEL-VEGFR2-BaF3
- test protocol: Proliferation of TEL-VEGFR2-BaF3 cells, CCK8 cell viability assay
- Format: cell-based
- measurement context: Mus musculus, 72 hours, stably expressing VEGFR2 kinase
Exercise: state measured GI50 for each of the compounds provided.
Please state the figure in nM; there is no need to write the unit.

Ask | Item under review: Cc1ccc(NC(=O)Nc2ccc(Oc3cc(N[C@H](C)CN)ncn3)cc2)cc1C(F)(F)F [Example 113] . Reported GI50?
Reply | 1260

Ask | Sample CCCCC(=O)Nc1cc(Oc2ccc(NC(=O)Cc3ccccc3C(F)(F)F)cc2)ncn1 [Example 55] — what was its GI50?
Reply | 3900

Ask | Name the recorded GI50 for COCCNc1cc(Oc2ccc(NC(=O)Nc3ccc(CN4CCN(C)CC4)cc3)cc2)ncn1 [Example 172] .
Reply | 8300

Ask | Item under review: Cc1ccc(NC(=O)Nc2ccc(Oc3cc(N4CCN(C(=O)OC(C)(C)C)C[C@H]4CO)ncn3)cc2)cc1C(F)(F)F [Example 110] . Reported GI50?
Reply | 4620

Ask | Recorded GI50 of COCCNc1cc(O[C@H]2CC[C@H](NC(=O)Nc3ccc(C)c(C(F)(F)F)c3)CC2)ncn1 [Example 43] , please.
Reply | 2600

Ask | Data request, read-out GI50, for CC(C)(C)C(=O)Nc1cc(Oc2ccc(NC(=O)Cc3ccc(C(F)(F)F)cc3)cc2)ncn1 [Example 52]
Reply | 3420

Ask | Fill blank: measured GI50 of the compound CCC(=O)Nc1cc(Oc2ccc(NC(=O)Cc3ccccc3C(F)(F)F)cc2)ncn1 [Example 47] is ____.
Reply | 3170

Ask | Suppose we examine the compound COc1ccccc1CC(=O)Nc1ccc(Oc2cc(NC(C)=O)ncn2)cc1 [Example 24] ; what GI50 value has been reported?
Reply | 3100

Ask | Entry CC(=O)Nc1cc(Oc2ccc(NC(=O)Cc3ccccc3Cl)cc2)ncn1 [Example 26] : reported GI50 = ?
Reply | 1240

Ask | Recorded GI50 of COc1cc(CC(=O)Nc2ccc(Oc3cc(NC(C)=O)ncn3)cc2)ccc1O [Example 11] , please.
Reply | 1520

Ask | Requested read-out: GI50. Entry: Cc1ccc(NC(=O)Nc2ccc(Oc3cc(NCC(N)=O)ncn3)cc2)cc1C(F)(F)F [Example 142]
Reply | 9670

Ask | What does the record list as GI50 for CC(=O)Nc1cc(Oc2ccc(NC(=O)Cc3cccc(Oc4ccccc4)c3)cc2)ncn1 [Example 12] ?
Reply | 229

Ask | Which GI50 is listed for CC(=O)Nc1cc(Oc2ccc(NC(=O)Cc3ccc(C(F)(F)F)cc3C(F)(F)F)cc2)ncn1 [Example 3] ?
Reply | 1090

Ask | Query (compound): Cc1ccc(NC(=O)Nc2ccc(Oc3cc(N4CCOC[C@H]4C)ncn3)cc2)cc1C(F)(F)F [Example 114] ; field requested: GI50
Reply | 1330

Ask | May I ask what GI50 has been recorded for Cc1ccc(NC(=O)Nc2ccc(Oc3cc(N[C@H](C)CNC(=O)OC(C)(C)C)ncn3)cc2)cc1C(F)(F)F [Example 112] ?
Reply | 390

Ask | If you can, please state the reported GI50 value of CC[C@@H]1CN(C(=O)OC(C)(C)C)CCN1c1cc(Oc2ccc(NC(=O)Nc3ccc(C)c(C(F)(F)F)c3)cc2)ncn1 [Example 111] .
Reply | 1740

Ask | Sample CC(C)C(=O)Nc1cc(Oc2ccc(NC(=O)Cc3ccccc3C(F)(F)F)cc2)ncn1 [Example 49] — what was its GI50?
Reply | 6110

Ask | Form field: reported GI50 of Cc1ccc(NC(=O)Nc2ccc(Oc3cc(NCCN4CCCC4)ncn3)cc2)cc1C(F)(F)F [Example 122]
Reply | 170

Ask | Consider the compound shown here: Cc1ccc(NC(=O)NC2CCC(Oc3cc(NCCO)ncn3)CC2)cc1C(F)(F)F (centres unmarked) [Example 40] What is its recorded GI50?
Reply | 5090

Ask | Query: GI50; subject: CC(=O)Nc1cc(Sc2ccc(NC(=O)Cc3ccccc3C(F)(F)F)cc2)ncn1 [Example 67]
Reply | 7820

Ask | Reported GI50, compound CC(=O)Nc1cc(Oc2ccc(NC(=O)C(O)c3ccc(Br)cc3)cc2)ncn1 (centres unmarked) [Example 14] : ____
Reply | 1240

Ask | Using the record for CC(=O)Nc1cc(Oc2ccc(NC(=O)Cc3c(Cl)cccc3Cl)cc2)ncn1 [Example 6] , report its GI50.
Reply | 1930

Ask | Recorded GI50 of CC(=O)Nc1cc(Oc2ccc(NC(=O)Cc3ccccc3C(F)(F)F)cc2)ncn1 [Example 135] , please.
Reply | 1440

Ask | # get_value(readout='GI50', item= Cc1ccc(NC(=O)Nc2ccc(Oc3cc(N4CCN(C(=O)CC(C)(C)C)C[C@H]4C)ncn3)cc2)cc1C(F)(F)F [Example 115] )
Reply | 2280

Ask | Please give the measured GI50 for this compound: CC(=O)Nc1cc(Oc2ccc(NC(=O)Cc3cccc(F)c3F)cc2)ncn1 [Example 16]
Reply | 853

Ask | Please look up its GI50: Cc1ccc(NC(=O)Nc2ccc(Oc3cc(N[C@@H](C)C(=O)O)ncn3)cc2)cc1C(F)(F)F [Example 126]
Reply | 410

Ask | // returns reported GI50 for input CC(=O)Nc1cc(Oc2ccc(NC(=O)Cc3ccccc3I)cc2)ncn1 [Example 4]
Reply | 734

Ask | Which GI50 is listed for COc1ccc(CNc2cc(Oc3ccc(NC(=O)Nc4ccc(CN5CCNCC5)c(C(F)(F)F)c4)cc3)ncn2)cc1 [Example 180] ?
Reply | 39

Ask | Which GI50 is reported for this compound? Cc1ccc(NC(=O)Nc2ccc(Oc3cc(N(C)CCO)ncn3)cc2)cc1C(F)(F)F [Example 87]
Reply | 398

Ask | Reported GI50, compound Cc1ccc(NC(=O)Nc2ccc(Oc3cc(N4CCN(C(=O)OC(C)(C)C)C[C@H]4C)ncn3)cc2)cc1C(F)(F)F [Example 100] : ____
Reply | 1660

Ask | Look up GI50: COCCNc1cc(OC2CCC(NC(=O)Nc3ccc(C)c(C(F)(F)F)c3)CC2)ncn1 (centres unmarked) [Example 41]
Reply | 2900

Ask | Give the measured GI50 of Cc1ccc(NC(=O)N[C@H]2CC[C@H](Oc3cc(NCCN)ncn3)CC2)cc1C(F)(F)F [Example 46] .
Reply | 3030
